tested on: HCT116 WT cells; assay: HCT116 WT cell proliferation / viability (CellTiter-Glo, 6 days); assay type: cell-based; details: Homo sapiens, HCT-116, 144 h, HCT116 WT cells, 6 days, CellTiter-Glo; read-out: HCT-116 WT IC50
quantity-name: IC50 (nM)
One number for each entry, in nM.

Worked set:
[
  {
    "compound": "Cn1cc(N(Cc2ccc(C(F)(F)F)cn2)C(=O)c2cc3c4c(c(N)nc3cc2Cl)COC4)cn1 [Example 715]",
    "measured": 70
  },
  {
    "compound": "Nc1nc2ccc(C(=O)N(Cc3ccc(C(F)(F)F)cn3)C3CC3)cc2c2c1COC2 [Example 443]",
    "measured": 7210
  },
  {
    "compound": "COc1ccc(CN(C(=O)c2ccc3nc(N)c4c(c3c2)CCC4)[C@H](C)c2ncccn2)nn1 (single isomer, unassigned) [Example 646]",
    "measured": 263
  }
]

Task: So what does the record say about IC50 for CN(Cc1ccc(S(F)(F)(F)(F)F)cc1)C(=O)c1cc2c3c(c(N)nc2cc1Cl)COC3 [Example 513] ?
Output: 848

###

tested on: HCT116 WT cells; assay: HCT116 WT cell proliferation / viability (CellTiter-Glo, 6 days); format: cell-based; conditions: Homo sapiens, HCT-116, 144 h, HCT116 WT cells, 6 days, CellTiter-Glo; read-out: HCT-116 WT IC50
quantity-name: IC50 (µM)
Answers are plain numbers, in µM.

Worked set:
[
  {
    "compound": "Nc1nc2ccc(C(=O)N(Cc3ccc(C(F)(F)F)cn3)CC(F)(F)F)cc2c2c1COC2",
    "IC50, µM": 7.29
  },
  {
    "compound": "CCOc1ccc(CN(CC(C)C)C(=O)c2cc3c4c(c(N)nc3cn2)COC4)nn1",
    "IC50, µM": 7.46
  }
]

For every item below, please supply its IC50.
1. Nc1nc2ccc(C(=O)N(Cc3ccc(C(F)(F)F)cn3)C3CCCn4ncnc43)cc2c2c1COC2 (stereo not shown)
2. CC(C)N(Cc1ccc(C2CC2)nc1)C(=O)c1cc2c3c(c(N)nc2cn1)[C@@H](C)OC3
3. Nc1nc2ncc(C(=O)N(Cc3ccc(C(F)(F)F)cn3)CC3CC3)cc2c2c1COC2
4. CCN(Cc1ccc(C(F)(F)F)cn1)C(=O)c1cc2c(cc1Cl)nc(N)c1cnn(C)c12
5. C[C@H]1OCc2c1c(N)nc1cnc(C(=O)N(Cc3ccc(C#N)cn3)C3CC3)cc21

Output:
[0.256, 25.6, 3.79, 0.296, 23.7]

For every item below, please supply its IC50.
1. Cn1ncc2c3cc(C(=O)N(Cc4ccc(C(F)(F)F)nn4)C4CCC4)c(F)cc3nc(N)c21
2. CC(C)N(Cc1ccc(C#N)cn1)C(=O)c1ccc2nc(N)c3c(c2c1)CO[C@@H]3C
3. C[C@H]1OCc2c1c(N)nc1ccc(C(=O)N(Cc3ccc(C(F)(F)F)cn3)CC(F)(F)F)cc21

Output:
1: 1.85; 2: 21.4; 3: 5.71

For every item below, please supply its IC50.
1. C[C@H](c1ncccn1)N(Cc1ccc(C2CC2)nn1)C(=O)c1ccc2nc(N)c3c(c2c1)CO[C@@H]3C
2. Cn1ncc2c(N)nc3cc(F)c(C(=O)N(Cc4ccc(C(F)(F)F)nn4)C4CC4)cc3c21
3. C[C@H](c1ccc(F)cn1)N(C)C(=O)c1ccc2nc(N)c3cnn(C)c3c2c1 (single isomer, unassigned)
4. CCN(C(=O)c1ccc2nc(N)c3c(c2c1)COC3)[C@H](c1ccc(C(F)(F)F)cn1)C1CC1
5. Nc1nc2cc(F)c(C(=O)N(Cc3ccc(C4CC4)cn3)C3CC3)cc2c2c1COC2
6. CN(Cc1ccc(C#N)cn1)C(=O)c1cc2c3c(c(N)nc2cc1Cl)COC3

Output:
1. 0.16
2. 1.8
3. 24.6
4. 36.4
5. 1.37
6. 14.9
